- Experimental system: T1, human TNFR2 extracellular domain with C-terminal 10×His tag (human, UniProt P20333 23-257)
- T1 construct: also called huTNFR2-His; His-tag-huTNFR2
- T1 sequence: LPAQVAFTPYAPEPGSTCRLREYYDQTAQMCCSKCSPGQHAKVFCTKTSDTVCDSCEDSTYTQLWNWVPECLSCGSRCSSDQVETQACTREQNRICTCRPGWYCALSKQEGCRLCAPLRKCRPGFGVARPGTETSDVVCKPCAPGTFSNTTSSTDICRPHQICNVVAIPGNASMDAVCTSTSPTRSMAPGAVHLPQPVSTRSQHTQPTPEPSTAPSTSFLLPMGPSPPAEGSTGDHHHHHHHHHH
- Experimental protocol: BLI (Octet RED96), antibody captured on AHC biosensor, His-tagged TNFR2 in solution, 1:1 model
Property name: koff (s⁻¹)
Report as a plain number; the unit s⁻¹ is understood.

These recorded examples may help you get a feel for the data.
29G3 chimeric anti-TNFR2 antibody (antibody, V domains shown, Chimeric: mouse variable domains with human constant regions, made as recombinant IgG1) VH: EVMLVESGGASVKPGGSLKLSCAASGFTFSNFAMSWVRQTPEKRLEWVATIRSGDNYSYYSDNVKGRFTISRDNARNTLYLQMSSLRSKDTSIYYCARNWDKVFDYWGQGTTLTVSS VL: DIVLTQSPASLAVSLGQRATISCRASESVDSYGYSFMHWYQQKPGQPPKLLIYRASNLKSGIPARFSGSGSRTDFTLTINPVEADDVATYYCQQSNEDHTFGGGTKLEIK
0.00114
85G8.4 chimeric anti-TNFR2 antibody (antibody, V domains shown, Chimeric: mouse variable domains with human constant regions, made as recombinant IgG1) VH: EVQLQQSGPELVKPGASVKISCKTSGYTFTDFNMDWVKQSHGKSLEWIGYINPNNGDAAYNQKFKSKATLTVDKSSNTAYMELHSLTSDDSAVYYCARWGWAFAYWGQGTLVTVSA VL: DIVMTQSHKIMSTSVGDRVSITCKASQDVKTAVAWYQQKPGQSPKLLIYATSYRYTGVPDRFTGSGSGTDFTFTISTVQAEDLAVYYCQQHYSIPYTFGGGTKLEIK
0.000251
6F12 chimeric anti-TNFR2 antibody (antibody, V domains shown, Chimeric: mouse variable domains with human constant regions, made as recombinant IgG1) VH: QIQLVQSGPELKKPGETVKISCKTSGYTFTIYGMNWVKQAPGKGLKWMGWIHTYTGEPTYADDFKGRFVFSLETSDSTAYLQINNLKSEDMATYFCVRRERYGSFWGQGTLVTVSA VL: DIVLTQSPASLAVSLGQRATISCTASQSVDYGGVSYMNWYQQKPGQPPKLLIYGASNQESGIPVRFSGSGSGTDFTLNIHPVEEEDAATYYCQQSNEDPPTFGAGTKLELK
0.000886
102E4 chimeric anti-TNFR2 antibody (antibody, V domains shown, Chimeric: mouse variable domains with human constant regions, made as recombinant IgG1) VH: EVLLQQSGAELVRPGASVKLSCTASGFNIKDDFIHWVQQRPEQGLEWIGRINPSNANTEYAPKFQDKATITTDTSSNTAYLQLSSLTSEDTAVYYCTRNDGYYDGLFYWGQGTTLTVSS VL: DIVMTQSHKFMSSSVGDRVSITCKASQDVGTAVAWYQQKPGQSPKLLIYWASTRHTGVPDRFTGSGSGTDFTLTISNVQSEDLADYFCQQYSSYPFTFGSGTKLEIK
0.000696
11C1 chimeric anti-TNFR2 antibody (antibody, V domains shown, Chimeric: mouse variable domains with human constant regions, made as recombinant IgG1) VH: DVQLRESGPGLVTPSQSLSLTCSVTGYSITSGYYWNWIRQIPGNKLEWMGYITYDGNNNYDPSLKNRISITRDTSKNQFFLTLNSVTSEDTATYYCARGDYGDSAMDYWGQGTSVTVSS VL: EIVLTQSPAITAASLGQKVTITCSASSSVSYMHWYQQKSGTSPKPWIYEISKLASGVPARFSGSGSGTSYSLIISSMEAEDAAIYYCQQWNYPLITFGAGTKLELK
0.000258

Prompt: Need koff of 15H10 chimeric anti-TNFR2 antibody (antibody, V domains shown, Chimeric: mouse variable domains with human constant regions, made as recombinant IgG1) VH: DVQLQESGPGLVTPSQSLSLTCSVTGYSITSGYYWNWIRQFPGNKLEWMGYITYDGNNNYNPSLKSRFSITRDTSKNQFFLKLNSVTSEDTATYYCARGDYGDSAMDYWGQGTSVTVSS VL: EIVLTQSPAITAASLGQKVTITCSASSGVNYMHWYQQKSGTSPKPWIYEISKLASGVPARFSGSGSGTSYSLTISSMEAEDAAIYYCQQWNYPLITFGAGTKVELK , thanks.
Response: 2.58e-05

Just for reference, patent US20250011448A1 is where these values come from.
